measured.on: Human PKMYT1 (Homo sapiens)
Construct: Human PKMYT1 75-362 was cloned as a TEV cleavable 6xHis fusion; 6xHis (TEV cleavable) (cleaved yes); made in house; host or cells: bacterial cells
Sequence (Q99640 75-362): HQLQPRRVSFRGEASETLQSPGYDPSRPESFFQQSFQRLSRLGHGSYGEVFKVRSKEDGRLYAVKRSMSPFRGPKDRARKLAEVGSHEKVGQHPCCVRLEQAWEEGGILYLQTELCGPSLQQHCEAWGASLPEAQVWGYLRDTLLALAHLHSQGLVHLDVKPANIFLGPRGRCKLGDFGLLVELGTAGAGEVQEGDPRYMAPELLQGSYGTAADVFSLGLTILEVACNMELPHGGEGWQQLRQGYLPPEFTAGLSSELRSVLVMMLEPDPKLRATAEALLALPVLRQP
test.summary: PKMYT1 biochemical ADP-Glo enzymatic assay
experimental.setup: ADP-Glo; 15 nM PKMYT1 kinase domain, 500 µM ATP, 60 minutes at 26° C.; banded
Listing of recorded IC50 by entry.

Cc1ccc(O)c(C)c1NC(=O)c1cnc(Nc2ccn(CC(=O)OC(C)C)n2)s1 [BAA-209] ... < 0.05 µM
Cc1cn(C2CCC2)nc1Nc1ncc(C(=O)Nc2c(C)ccc(O)c2C)s1 [BAA-270] ... < 0.05 µM
Cc1ccc(O)c(C)c1NC(=O)c1cnc(Nc2ccn(C(F)F)n2)s1 [BAA-025] ... 0.05 to 1 µM

Lab request: please report IC50 under test system Human PKMYT1 (Homo sapiens) for Cc1ccc(O)c(C)c1NC(=O)c1cnc(Nc2cccc(N3CCC(N)CC3)n2)s1 [BAA-274]
< 0.05 µM

Lab request: please report IC50 under test system Human PKMYT1 (Homo sapiens) for CCOc1ccc(-n2cc(C)c(Nc3ncc(C(=O)Nc4c(C)ccc(O)c4C)s3)n2)cn1 [BAA-369]
0.05 to 1 µM

Lab request: please report IC50 under test system Human PKMYT1 (Homo sapiens) for Cc1ccc(O)c(C)c1NC(=O)c1cnc(Nc2cc(C)n(CC(=O)N3CCN(C)CC3)n2)s1 [BAA-201]
< 0.05 µM

Lab request: please report IC50 under test system Human PKMYT1 (Homo sapiens) for CCNc1ncc(C(=O)Nc2c(C)ccc(O)c2C)s1 [BAA-060]
0.05 to 1 µM

====

measured.on: WEE1 (Homo sapiens, UniProt P30291)
Construct: purchased Thermo Fisher PR7373A
Sequence (P30291 whole entry): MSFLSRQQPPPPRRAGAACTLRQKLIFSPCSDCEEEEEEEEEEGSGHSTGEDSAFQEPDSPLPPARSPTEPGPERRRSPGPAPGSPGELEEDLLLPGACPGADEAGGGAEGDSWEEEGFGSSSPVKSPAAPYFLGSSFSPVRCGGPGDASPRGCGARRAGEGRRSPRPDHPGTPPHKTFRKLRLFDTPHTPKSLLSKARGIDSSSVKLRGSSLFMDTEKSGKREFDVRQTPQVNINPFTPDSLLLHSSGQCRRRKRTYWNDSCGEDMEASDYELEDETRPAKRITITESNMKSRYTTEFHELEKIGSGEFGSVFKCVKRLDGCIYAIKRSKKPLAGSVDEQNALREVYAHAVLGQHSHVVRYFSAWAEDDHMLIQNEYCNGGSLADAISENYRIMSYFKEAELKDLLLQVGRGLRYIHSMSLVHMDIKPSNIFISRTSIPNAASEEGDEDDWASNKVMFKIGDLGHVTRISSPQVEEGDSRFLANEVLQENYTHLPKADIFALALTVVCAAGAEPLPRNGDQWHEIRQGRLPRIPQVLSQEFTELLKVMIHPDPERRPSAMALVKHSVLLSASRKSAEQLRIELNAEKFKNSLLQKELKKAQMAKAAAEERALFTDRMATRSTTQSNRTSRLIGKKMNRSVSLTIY
test.summary: Selectivity versus WEE1 assay (ADP-Glo enzymatic assay)
Assay type: biochemical
experimental.setup: fold difference in selectivity for PKMYT1 over WEE1; banded; ">N" = at least in this band but could be higher
measured.parameter: PKMYT1 vs. WEE1 selectivity

Please review the entries below; each comes with its answer.
Cc1ccc(O)c(C)c1NC(=O)c1cnc(Nc2sccc2C(N)=O)s1 ... >X (100-<1000 fold)
COc1ccc(CC(=O)N2CC[C@@H](n3ccc(Nc4ncc(C(=O)Nc5c(C)ccc(O)c5C)s4)n3)C2)cc1 ... >X (100-<1000 fold)
Cc1ccc(O)c(C)c1NC(=O)c1cnc(Nc2cc3ccccn3n2)s1 ... Y (1000-5000 fold)
Cc1ccc(O)c(C)c1NC(=O)c1cnc(Nc2ccn(CC(=O)N3CC4CCC(C3)N4C(=O)OC(C)(C)C)n2)s1 ... Y (1000-5000 fold)
Cc1ccc(O)c(C)c1NC(=O)c1cnc(Nc2nn(-c3ccccn3)cc2Cl)s1 ... Y (1000-5000 fold)
Cc1ccc(O)c(C)c1NC(=O)c1cnc(Nc2ccn(CC(=O)NC3CCNCC3)n2)s1 ... X (100-<1000 fold)
Cc1ccc(O)c(C)c1NC(=O)c1cnc(Nc2cccc(C(=O)NC(C(C)C)C(F)(F)F)c2)s1 (centres unmarked) ... X (100-<1000 fold)

Next up:
Lab request: please report PKMYT1 vs. WEE1 selectivity under test system WEE1 (Homo sapiens, UniProt P30291) for "Cc1ccc(O)c(C)c1NC(=O)c1cnc(Nc2cccc(C(=O)N3CC(F)(F)C(F)(F)C3)c2)s1"
X (100-<1000 fold)

Origin of the recorded values: patent US20260297042A1
